Measured cell viability, listed per entry.
System: NOMO1
assay text: cell viability relative to DMSO control; higher = less cytotoxic
run parameters: RPMI 5 mM glucose + 10% FBS; 48 h; 0.00702 µM
value kind: cell viability (%)

* CCOC(=O)Nc1ccc(NCc2ccc(F)cc2)cc1N | 117
* CNC(=O)c1cccc(-c2ccc3c(N4CCOC[C@@H]4C)nc(N4CCOC[C@@H]4C)nc3n2)c1 | 91.2
* Cc1ccc(NC(=O)C2(c3ccc4c(c3)OC(F)(F)O4)CC2)nc1-c1cccc(C(=O)O)c1 | 99.6
* O=C(NC1CCNCC1)c1n[nH]cc1NC(=O)c1c(Cl)cccc1Cl | 110
* COc1cc2nccc(Oc3ccc(NC(=O)C4(C(=O)Nc5ccc(F)cc5)CC4)cc3)c2cc1OC | 101
* Cc1ccc(-n2nc(C(C)(C)C)cc2NC(=O)Nc2ccc(OCCN3CCOCC3)c3ccccc23)cc1 | 113
* CC(C)(C)OC(=O)CN(Cc1ccc(Cl)cc1)Cc1ccc([N+](=O)[O-])s1 | 95.4
* COC1=CC=C2Nc3cc(Cl)ccc3C(N=C3C=C(CN4CCCC4)C(=O)C(CN4CCCC4)=C3)=C2N1 | 120
* CN1C(=O)\C(=C/C(=C1/NC2=C(F)C=C(I)C=C2)C(=O)NOCCO)C | 75.3
* C[C@@H](c1ncncc1F)[C@](O)(Cn1cncn1)c1ccc(F)cc1F | 114
* COc1ccc(/C=C\c2cc(OC)c(OC)c(OC)c2)cc1O | 31.2
* COc1ccc(Cc2nccc3cc(OC)c(OC)cc23)cc1OC | 124
* COc1nc(-c2ccc3c(c2)OCO3)n(-c2ccc(NC(=O)CSc3ccccc3)cc2)n1 | 114
* CN(C)CCOC(c1ccccc1)c1ccccc1 | 106

====

Tested on: NOMO1
assay text: cell viability relative to DMSO control; higher = less cytotoxic
run parameters: HPLM + 10% dialyzed FBS; 48 h; 0.000781 µM
Parameter: cell viability. Scope: all listed entries.
value kind: cell viability (%)

• COc1cc2c(Nc3ccc(NC(=O)c4ccccc4)cc3)ncnc2cc1OCCCN1CCOCC1 = 122
• CC[C@H]1OC(=O)[C@H](C)[C@@H](O[C@H]2C[C@@](C)(OC)[C@@H](O)[C@H](C)O2)[C@H](C)[C@@H](O[C@@H]2O[C@@H](C)C[C@H](N(C)C)[C@H]2O)[C@](C)(O)C[C@@H](C)C(=O)[C@H](C)[C@@H](O)[C@]1(C)O = 86.3
• O=C/1\C=C(/OC(=C1)/C2=C3SC4=C(SC3=CC=C2)C=CC=C4)N5CCOCC5 = 93.3
• C[N]1C=NC=C1[C@@](N)(C2=CC=C(Cl)C=C2)C3=CC=C4N(C)C(=O)\C=C(\C5=CC=CC(=C5)Cl)C4=C3 = 108
• CC(=O)N1CCN(c2ccc(OCc3nn(C)c(C)c3-c3cccc4c(CCCOc5cc(C)c(Cl)c(C)c5)c(C(=O)O)n(Cc5cccnc5)c34)cc2)CC1 = 111
• CN1C(=O)\C(=C/C(=C1/NC2=C(F)C=C(I)C=C2)C(=O)NOCCO)C = 89.8
• C[C@@H](c1ncncc1F)[C@](O)(Cn1cncn1)c1ccc(F)cc1F = 117
• Cc1nc(Nc2ncc(C(=O)Nc3c(C)cccc3Cl)s2)cc(N2CCN(CCO)CC2)n1 = 90.9
• NC1CCC(N[C@@H]2C[C@H]2c2ccccc2)CC1 (stereo partly specified) = 78.6
• Cc1[nH]c(/C=C2\C(=O)Nc3ccc([S+](=O)([O-])N(C)c4cccc(Cl)c4)cc32)c(C)c1C(=O)N1CCN(C)CC1 = 114
• COc1cc2nccc(Oc3ccc(NC(=O)Nc4cc(C)on4)c(Cl)c3)c2cc1OC = 113
• C=C(C)[C@@H]1CC[C@]2(C)CC[C@]3(C)[C@H](CC[C@@H]4[C@@]5(C)CC[C@H](O)C(C)(C)[C@@H]5CC[C@]43C)[C@@H]12 = 90.7
• CC/1=C/N([C@@H]2C[C@@H](O)[C@H](CO)O2)C(=O)NC1=O = 97.5
• CO/N=C(/C(=O)N[C@@H]1C(=O)N2C(C(=O)O)=C(Cn3ccc(=N)n3CCO)CS[C@H]12)c1csc(N)n1 = 104
• Cl.c1cnc2cc3c(cc2n1)C1CNCC3C1 = 107
• Clc1cccc(-c2nnnn2Cc2cccnc2)c1Cl = 82.8

====

Test system: SEM cells
assay text: cell viability relative to DMSO control; higher = less cytotoxic
run parameters: RPMI 5 mM glucose + 10% dialyzed FBS; 48 h; 0.0632 µM
Reported cell viability values follow for various molecules
value kind: cell viability (%)

- COc1cc2c(N3CCN(C(=O)Nc4ccc(OC(C)C)cc4)CC3)ncnc2cc1OCCCN1CCCCC1: 65
- CN[C@H](CC(C)C)C(=O)N[C@H]1C(=O)N[C@@H](CC(N)=O)C(=O)N[C@H]2C(=O)N[C@H]3C(=O)N[C@H](C(=O)N[C@H](C(=O)O)c4cc(O)cc(O)c4-c4cc3ccc4O)[C@H](O)c3ccc(c(Cl)c3)Oc3cc2cc(c3O[C@@H]2O[C@H](CO)[C@@H](O)[C@H](O)[C@H]2O[C@H]2C[C@](C)(N)[C@H](O)[C@H](C)O2)Oc2ccc(cc2Cl)[C@H]1O: 126
- CCCCCCCCCCCC(CC1OC(=O)C1CCCCCC)OC(=O)C(CC(C)C)NC=O (centres undefined): 105
- Cc1ccc(-n2nc(C(C)(C)C)cc2NC(=O)Nc2ccc(OCCN3CCOCC3)c3ccccc23)cc1: 92
- NC1CCC(N[C@@H]2C[C@H]2c2ccccc2)CC1 (some centres undefined): 98
- N[C@@H](C(=O)N[C@H]1[C@H]2SC\C(=C(/N2C1=O)C(O)=O)Cl)C3=CC=CC=C3: 137
- COc1ccc(Cc2nccc3cc(OC)c(OC)cc23)cc1OC: 99.5
- CNC(=O)[C@H](Cc1ccccc1)NC(=O)[C@H](CC(C)C)[C@H](CSc1cccs1)C(=O)NO: 67.2
- C#Cc1cccc(Nc2ncnc3cc(OCCOC)c(OCCO)cc23)c1: 116
- COC[C@H](NC(=O)c1cnc(C)s1)C(=O)N[C@@H](COC)C(=O)N[C@@H](Cc1ccccc1)C(=O)[C@@]1(C)CO1: 70.3
- CN(N=O)C(=O)N[C@H]1C(O)OC(CO)[C@@H](O)[C@@H]1O (some centres undefined): 70.4
- O=C1Nc2ccccc2/C1=C1\Nc2ccccc2C1=O: 82.5
- CCOC(=O)C/1=C(C)/NC(=S)NC1C2=CC=CC(=C2)O (centres undefined): 101
- CCC1=C[C@@H]2CN(C1)Cc1c([nH]c3ccccc13)[C@@](C(=O)OC)(c1cc3c(cc1OC)N(C)[C@H]1[C@@](O)(C(=O)OC)[C@H](OC(C)=O)[C@]4(CC)C=CCN5CC[C@]31[C@@H]54)C2: 62.9
- O=C(NC1CCNCC1)c1n[nH]cc1NC(=O)c1c(Cl)cccc1Cl: 118
- Cc1c[nH]c(/C=C2\C(=O)Nc3ccccc32)c1CCC(=O)O: 90.8
- C=C(C)[C@@H]1CC[C@]2(C)CC[C@]3(C)[C@H](CC[C@@H]4[C@@]5(C)CC[C@H](O)C(C)(C)[C@@H]5CC[C@]43C)[C@@H]12: 102
- CC[C@H]1OC(=O)[C@H](C)[C@@H](O[C@H]2C[C@@](C)(OC)[C@@H](O)[C@H](C)O2)[C@H](C)[C@@H](O[C@@H]2O[C@@H](C)C[C@H](N(C)C)[C@H]2O)[C@](C)(O)C[C@@H](C)C(=O)[C@H](C)[C@@H](O)[C@]1(C)O: 89.4
- O=C(NC1CCOCC1)c1ccc(-c2cc(-c3c[nH]nc3-c3ccccn3)ccn2)cc1: 104
- C[N]1C=NC=C1[C@@](N)(C2=CC=C(Cl)C=C2)C3=CC=C4N(C)C(=O)\C=C(\C5=CC=CC(=C5)Cl)C4=C3: 98.5
- COc1cc2nccc(Oc3ccc(NC(=O)Nc4ccc(F)cc4F)c(F)c3)c2cc1OC: 41.6
- CC[C@]1(O)C[C@H]2CN(CCC3=C([NH]C4=C3C=CC=C4)[C@@](C2)(C(=O)OC)C5=CC6=C(C=C5OC)N(C=O)[C@H]7[C@](O)([C@H](OC(C)=O)[C@]8(CC)\C=C/C[N@@]9CC[C@]67[C@H]89)C(=O)OC)C1: 46.3
- Cn1c2ccccc2c2c3c(c4c5ccccc5n(CCC#N)c4c21)CNC3=O: 124
- CCC(=O)O[C@@]1([C@@H](C)C[C@H]2[C@@H]3CCC/4=C/C(=O)/C=C\[C@]4(C)[C@@]3(F)[C@@H](O)C[C@]12C)C(=O)CCl: 63.3
- O=C1c2c(O)cccc2[C@H]([C@@H]2O[C@H](CO)[C@@H](O)[C@H](O)[C@H]2O)c2cc(CO)cc(O)c21: 102
- OCc1ccccc1O[C@@H]1O[C@H](CO)[C@@H](O)[C@H](O)[C@H]1O: 136
- O=C1CSC(=O)N1C(CCc1ccncc1)COc1ccc(-c2cccc([N+](=O)[O-])c2)cc1 (centres undefined): 135
- C[C@@H]1CC[C@@]2(OC1)O[C@H]3C[C@H]4[C@@H]5C/C=C6/C[C@H](CC[C@]6(C)[C@H]5CC[C@]4(C)[C@H]3[C@@H]2C)O[C@@H]7O[C@H](CO)[C@@H](O[C@@H]8O[C@@H](C)[C@H](O)[C@@H](O)[C@H]8O)[C@H](O)[C@H]7O[C@@H]9O[C@@H](C)[C@H](O)[C@@H](O)[C@H]9O: 139
- CCOC(=O)Nc1ccc(NCc2ccc(F)cc2)cc1N: 123

Provenance of the data: the supplement of paper PMC11451515
